System: MOLT-4 leukemia
Assay: NCI tumour cell line growth inhibition, 48 h; in the data active = GI50 below about 0.43 µM; inactive = the rest
Possible outcomes: yes = active, no = inactive

INSERT INTO measurements (compound, target_or_test_system, cat) VALUES
  ('COc1cc2cc(Oc3ccc(NC(=O)Nc4cccc(C(F)(F)F)c4)cc3)c(C)nc2cc1OC', 'MOLT-4 leukemia', 'no'),
  ('COc1cc(C)c(Cl)cc1C1=NN(c2ccc(S(N)(=O)=O)cc2)C(/C=C/c2ccccc2)C1 (stereo not given)', 'MOLT-4 leukemia', 'no'),
  ('C=CC(=O)N1CCN(c2nc(=O)n(-c3c(C)ccnc3C(C)C)c3nc(-c4c(O)cccc4F)c(F)cc23)[C@@H](C)C1', 'MOLT-4 leukemia', 'no'),
  ('O=C1C(=O)c2ccccc2C(O)=C1CC=C(Br)Br', 'MOLT-4 leukemia', 'no'),
  ('N#Cc1nc2c(S(=O)(=O)c3ccccc3)c(N)n(Cc3cccnc3)c2nc1C#N', 'MOLT-4 leukemia', 'no'),
  ('C/C(=N/Nc1nc2ccccc2n1C)c1ccccn1', 'MOLT-4 leukemia', 'yes'),
  ('Ic1ccccc1-c1ccccc1', 'MOLT-4 leukemia', 'no'),
  ('COc1ccc(-n2nnnc2-c2c[nH]c3c(F)cc(F)cc23)cc1', 'MOLT-4 leukemia', 'no'),
  ('Cc1cc2nc3c4cc(N)ccc4n(CCN(C)C)c3nc2cc1C', 'MOLT-4 leukemia', 'yes'),
  ('C=C(CN1C(=O)[C@H]2CCCN2C(=O)c2ccccc21)c1ccc(C(=O)O)cc1', 'MOLT-4 leukemia', 'no');

The origin of these recorded values is PubChem BioAssay (NCI).
